Measurement Description: NCI Yeast Anticancer Drug Screen. Data for the sgs1 strain (AID 173);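 also: 0% = growth of vehicle-only control cultures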
Condition Context: S. cerevisiae sgs1 mutant, at 1.2 µM, stronger effect = higher value
Description: Growth inhibition of yeast strains with defined genetic alterations is measured as a screen for potential anti-cancer activity. Selected strains with alterations in DNA damage repair or cell cycle control were exposed to compounds and growth inhibition was measured relative to vehicle treated controls. The strain used in this assay is sgs1
This is part of a sample that, as a whole, favours compounds with a hit. Of some 79,000 tested, about 15% had one in any assay.
Test Readout: growth inhibition (%)
Could you give me the number in %? Just the number is fine.

## Input // lookup growth inhibition for O=[N+]([O-])/C(C(Cl)=C(Cl)Cl)=C1/OCCS1
## Output 42

## Input // lookup growth inhibition for CCCc1[nH]nc(C(N)=O)c1N=NN(C)C
## Output 0

## Input // lookup growth inhibition for Cc1ccc(S(=O)(=O)N(C)c2ccc(Cl)cc2C2=NCCc3ccccc32)cc1
## Output -15

## Input // lookup growth inhibition for O=C(NCCCCCN1CCC2(CCCCC2)CC1)C(C1CCCCC1)C1CCCCC1
## Output 2

## Input // lookup growth inhibition for CC(C)c1cccc(O)c(=O)c1
## Output -3

## Input // lookup growth inhibition for CCOC(=O)C1=C(C)NC(C)=C(C(=O)OCC)C1c1ccc(C)cc1
## Output 15

## Input // lookup growth inhibition for COc1ccc(/C=C(\NC(=O)c2ccccc2)C(=O)NN(C)c2ccnc3cc(Cl)ccc23)cc1OC
## Output 0

## Input // lookup growth inhibition for O=C1c2cccc3cc([N+](=O)[O-])cc(c23)C(=O)N1CCN1CCCC1
## Output 0

## Input // lookup growth inhibition for CC(C)(C)c1ccc(O)c(C(c2ccc([N+](=O)[O-])cc2)c2cc(C(C)(C)C)ccc2O)c1
## Output 22

## Input // lookup growth inhibition for Cc1cc(O)c2c(c1O)C(=O)C13C(=C2O)C(=O)C2C(O)C1C1C(O)C3C(=O)C3=C(O)c4c(O)cc(C)c(O)c4C(=O)C321 (stereo not given)
## Output 29

## Input // lookup growth inhibition for N#C/C(=C1C=C(Br)/C(=N\O)C=C\1Cl)c1cccc2ccccc12
## Output 15

## Input // lookup growth inhibition for COc1ccc(N=N/C(=N\NC(=O)c2cc(Br)ccc2O)c2ccc(N(CCC#N)CCC#N)cc2OC)cc1
## Output 34

## Input // lookup growth inhibition for S=c1[nH]c2c(Cl)c(Cl)c(Cl)c(Cl)c2[nH]1
## Output -3

## Input // lookup growth inhibition for COc1cc(N)ccc1Nc1c2ccccc2nc2ccccc12
## Output -16

## Input // lookup growth inhibition for CCc1[nH]nc(C(N)=O)c1N=NN(C)C
## Output 0

## Input // lookup growth inhibition for CCCCOC(=O)CSSCC(=O)OCCCC
## Output -30

## Input // lookup growth inhibition for CCCCCC(=O)c1ccc(O)cc1O
## Output -19

## Input // lookup growth inhibition for O=Nc1ccc(Nc2ccccc2)cc1
## Output -40

## Input // lookup growth inhibition for COc1cc(NCc2ccc3nc(N)nc(N)c3c2C)cc(OC)c1OC
## Output -2

## Input // lookup growth inhibition for COc1ccc(/C(C#N)=C/c2ccc(OC)c(OC)c2)cc1
## Output -8

====

Measurement Description: NCI Yeast Anticancer Drug Screen. Data for the sgs1 mgt1 strain (AID 161);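 also: 0% = growth of cultures given vehicle only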
Condition Context: S. cerevisiae sgs1 mgt1 strain, at 50.0 µM (retest, dose inferred, filed as 5.0), stronger effect = higher value
Compounds without any hit were thinned out: in the full panel of roughly 79,000, 15% have a hit. Active and inactive are the calls of the source. No stated cut-off is given here; in the data, active means growth inhibition above about 70%; inactive means the rest.
This listing pairs compounds with measured growth inhibition.

Consider the worked cases shown below.
COc1ccc(C(C#N)=C2C=CC(=NO)C=C2)cc1	79% (active)
CCCCCCSc1nc(COC(=O)NC)c(COC(=O)NC)n1C	5% (inactive)
COc1cccc(C(c2cc3c(cc2O)OCO3)N2CCOCC2)c1OC (centres undefined)	79% (active)
C=Cc1cnc([N+](=O)[O-])n1C	95% (active)
O=C1CC(=O)N(C2CCCCC2)C(=O)N1c1ccccc1S(=O)(=O)Oc1ccccc1	31% (inactive)

## Input // lookup growth inhibition for Cc1cccc(/C=N/NC(=S)N(C)CCc2ccccn2)n1
## Output 97% (active)

## Input // lookup growth inhibition for CCC(NC(C)c1ccccc1)C(=O)c1ccc(OCc2ccccc2)c(OCc2ccccc2)c1 (centres undefined)
## Output 15% (inactive)

## Input // lookup growth inhibition for Cn1ncc2cc3c(Nc4ccc(Cl)cc4)cccc3nc21
## Output -2% (inactive)

## Input // lookup growth inhibition for On1cnc(=S)c2[nH]cnc21
## Output 100% (active)

====

Measurement Description: NCI Yeast Anticancer Drug Screen. Data for the mgt1 strain (AID 153)
Condition Context: S. cerevisiae mgt1 mutant growth inhibition; at 100.0 µM; stronger effect = higher value
The panel holds about 79,000 compounds, 15% with a hit somewhere; the sample as a whole holds those more often.
# binarize growth inhibition: threshold 40% inclusive, high side MET, low side NOT MET

O=C1c2cccc3cc([N+](=O)[O-])cc(c23)C(=O)N1CCN1CCCC1	MET
CCCCOC(=O)CSSCC(=O)OCCCC	MET
CC(=O)O[C@H]1C(=O)[C@@]2(C)[C@H]([C@H](OC(=O)c3ccccc3)[C@]3(O)C[C@H](OC(=O)[C@H](O)[C@@H](NC(=O)c4ccccc4)c4ccccc4)C(C)=C1C3(C)C)[C@]1(OC(C)=O)CO[C@@H]1C[C@@H]2O	NOT MET
O=c1[nH]c2ccccc2c2nc3ccccc3n12	NOT MET

Okay, now this compound:
## Input Given the entry CN(Cc1cnc2nc(N)nc(N)c2n1)c1ccc(C(=O)NC(CCC(=O)O)C(=O)O)c2ccccc12 (stereo unspecified) , answer whether its growth inhibition meets or surpasses 40%.
## Output MET

====

Measurement Description: NCI Yeast Anticancer Drug Screen. Data for the rad50EPP+ strain (AID 151);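 also: 0% = growth of vehicle-treated control cultures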
Condition Context: S. cerevisiae rad50 mutant strain, at 100.0 µM
Compounds without any hit were thinned out: in the full panel of roughly 79,000, 15% have a hit. The source made the active and inactive calls. Cut-off read from the data, not from the text of the source: active = growth inhibition above about 70%; inactive = the rest.
Give your call using only these classes: T (active), F (inactive)

Solved cases (6 shown):
O=C(O)c1[nH]c(=O)c2ccccc2c1Nc1ccccc1	F
Nc1cc(F)cc2c1-c1ccc(F)cc1C2	T
Cc1ccc2occ/c(=N\Nc3ccccc3)c2c1	F
CCCCC(=O)c1c(O)nc2sccn2c1=O	T
O=C(/C=C\c1ccc([N+](=O)[O-])o1)Nc1ccc(Cl)cc1	T
CCCCC1=NNC(=O)C1	F

## Input Could you please tell me the result logged for CC(=O)N1C(=O)/C(=C\C(=O)c2ccc([N+](=O)[O-])cc2)c2ccccc21 in this assay?
## Output T

## Input Could you please tell me the result logged for OCCN(CCO)c1ccc2c(c1)Cc1ccccc1-2 in this assay?
## Output F

## Input Could you please tell me the result logged for O=C1CC(=O)N(C2CCCCC2)C(=O)N1c1ccccc1S(=O)(=O)Oc1ccccc1 in this assay?
## Output F

## Input Could you please tell me the result logged for COc1ccc(S(=O)(=O)N/N=C\c2cc([N+](=O)[O-])cc(I)c2O)c(OC)c1OC in this assay?
## Output F

## Input Could you please tell me the result logged for O=C1C=CC(=O)N1c1ccc(N2C(=O)C=CC2=O)cc1 in this assay?
## Output T

## Input Could you please tell me the result logged for N#CC(=S)Nc1cccc(Cl)c1 in this assay?
## Output F

====

Measurement Description: NCI Yeast Anticancer Drug Screen. Data for the sgs1 strain (AID 173);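 also: 0% = growth of vehicle-only control cultures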
Condition Context: S. cerevisiae sgs1 mutant, at 3.7 µM, stronger effect = higher value
About 79,000 compounds went through this panel and 15% of them were active in at least one assay; those are over-represented in the sample as a whole. The source made the active and inactive calls. Cut-off read from the data, not from the text of the source: active = growth inhibition above about 70%; inactive = the rest.
Test Readout: growth inhibition

## Input // lookup growth inhibition for CNc1nc(C)nc2c1cnn2-c1ccc([N+](=O)[O-])cc1
## Output 4% (inactive)

## Input // lookup growth inhibition for COc1ccc2oc(-c3ccc(Cl)cc3)c(N3CCN(C)CC3)c2c1
## Output 0% (inactive)

## Input // lookup growth inhibition for Cc1onc(-c2ccccc2Cl)c1C1=N/C(=C/c2cc(Cl)cc(Cl)c2O)C(=O)O1
## Output -39% (inactive)

## Input // lookup growth inhibition for OCCN(CCO)c1ccc2c(c1)Cc1ccccc1-2
## Output -10% (inactive)

====

Measurement Description: NCI Yeast Anticancer Drug Screen. Data for the mgt1 strain (AID 153)
Condition Context: S. cerevisiae mgt1 mutant growth inhibition; at 100.0 µM
This is part of a sample that, as a whole, favours compounds with a hit. Of some 79,000 tested, about 15% had one in any assay. Calls of active or inactive are those of the source. No stated cut-off is given here; in the data, active means growth inhibition above about 70%; inactive means the rest.
Give your call using only these classes: yes (1) = active, no (0) = inactive

## Input Could you please tell me the result logged for CCOC(=O)C1=C(C)NC(C)=C(C(=O)OCC)C1c1ccccc1Cl in this assay?
## Output yes (1)
